# target.under.test: 5-hydroxytryptamine receptor 7 (Homo sapiens) (UniProt P34969)
# Sequence (P34969 whole entry): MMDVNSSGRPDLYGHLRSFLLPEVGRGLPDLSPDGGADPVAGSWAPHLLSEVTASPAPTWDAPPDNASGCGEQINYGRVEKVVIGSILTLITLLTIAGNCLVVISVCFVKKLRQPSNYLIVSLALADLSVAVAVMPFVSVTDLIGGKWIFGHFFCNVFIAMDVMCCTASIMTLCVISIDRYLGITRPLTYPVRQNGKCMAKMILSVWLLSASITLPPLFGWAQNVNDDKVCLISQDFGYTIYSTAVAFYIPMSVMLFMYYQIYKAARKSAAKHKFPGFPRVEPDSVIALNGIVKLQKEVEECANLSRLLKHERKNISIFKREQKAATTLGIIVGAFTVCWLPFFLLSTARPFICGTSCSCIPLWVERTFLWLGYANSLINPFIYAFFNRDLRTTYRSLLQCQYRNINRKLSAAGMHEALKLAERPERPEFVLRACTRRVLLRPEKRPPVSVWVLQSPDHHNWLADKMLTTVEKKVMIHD
# test.protocol: Antagonist activity at human recombinant 5HT7 receptor expressed in HEK293 cells assessed as inhibition of 5HT-induced cAMP accumulation at 10 uM pretreated for 10 mins before 5HT addition measured after 1 hr relative to control
# Format: functional, cell-based
Assign yes (1) to entries whose inhibition meets or exceeds 20%; assign no (0) to the rest.

{"structure.smiles": "CN1CCN(/N=C/c2c(-c3ccccc3)n(S(=O)(=O)c3cccc4c(N(C)C)cccc34)c3ccccc23)CC1", "label.class": "yes (1)"}
{"structure.smiles": "COc1cc(C)c(Cl)cc1S(=O)(=O)n1c(C)c(/C=N/N2CCN(C)CC2)c2ccccc21", "label.class": "no (0)"}
{"structure.smiles": "CN1CCN(/N=C/c2c(-c3ccccc3)n(S(=O)(=O)c3cn(C)cn3)c3ccccc23)CC1", "label.class": "yes (1)"}
{"structure.smiles": "CN1CCN(/N=C/c2c(-c3ccccc3)n(S(=O)(=O)c3ccccc3)c3ccccc23)CC1", "label.class": "yes (1)"}
{"structure.smiles": "Cc1c(/C=N/N2CCN(C)CC2)c2ccccc2n1S(=O)(=O)c1ccc(F)cc1", "label.class": "no (0)"}
{"structure.smiles": "Cc1c(/C=N/N2CCN(C)CC2)c2ccccc2n1S(=O)(=O)c1ccc2ccccc2c1", "label.class": "no (0)"}
{"structure.smiles": "CN1CCN(/N=C/c2c(-c3ccccc3)n(S(=O)(=O)c3cccc4ccccc34)c3ccccc23)CC1", "label.class": "no (0)"}
{"structure.smiles": "COc1ccc(NS(=O)(=O)c2ccc(I)cc2)cc1N1CCN(C)CC1", "label.class": "no (0)"}
{"structure.smiles": "COc1cc(C)c(Cl)cc1S(=O)(=O)n1c(-c2ccccc2)c(/C=N/N2CCN(C)CC2)c2ccccc21", "label.class": "yes (1)"}
{"structure.smiles": "CN1CCN(/N=C/c2c(-c3ccccc3)n(S(=O)(=O)c3ccc(F)cc3)c3ccccc23)CC1", "label.class": "yes (1)"}
{"structure.smiles": "CC1CCN(CC[C@H]2CCCN2S(=O)(=O)c2cccc(O)c2)CC1", "label.class": "yes (1)"}

###

# target.under.test: 5-hydroxytryptamine receptor 6 (Homo sapiens, UniProt P50406)
# Sequence (P50406 whole entry): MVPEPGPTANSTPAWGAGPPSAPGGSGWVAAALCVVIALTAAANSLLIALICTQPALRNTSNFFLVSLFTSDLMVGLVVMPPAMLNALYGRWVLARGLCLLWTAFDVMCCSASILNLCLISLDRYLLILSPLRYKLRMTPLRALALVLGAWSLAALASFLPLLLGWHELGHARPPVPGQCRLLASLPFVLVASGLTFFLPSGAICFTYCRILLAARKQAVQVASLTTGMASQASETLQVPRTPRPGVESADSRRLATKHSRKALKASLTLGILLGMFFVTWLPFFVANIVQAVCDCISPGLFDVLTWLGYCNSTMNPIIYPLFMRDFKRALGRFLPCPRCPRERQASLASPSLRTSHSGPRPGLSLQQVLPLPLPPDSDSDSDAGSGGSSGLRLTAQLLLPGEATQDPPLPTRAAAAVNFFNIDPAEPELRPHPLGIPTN
# test.protocol: Antagonist activity at human recombinant 5HT6 receptor expressed in HEK293 cells assessed as inhibition of 5HT-induced cAMP accumulation pretreated for 10 mins before 5HT addition measured after 1 hr
Consider the following partition of reported IC50 into named classes: 0: < 2 µM; 1: ≥ 2 µM and < 5 µM; 2: ≥ 5 µM

{"structure.smiles": "Cc1c(/C=N/N2CCN(C)CC2)c2ccccc2n1S(=O)(=O)c1ccc(F)cc1", "label.class": 1}
{"structure.smiles": "CN1CCN(/N=C/c2c(-c3ccccc3)n(S(=O)(=O)c3ccccc3)c3ccccc23)CC1", "label.class": 0}
{"structure.smiles": "CN1CCN(/N=C/c2c(-c3ccccc3)n(S(=O)(=O)c3cccc4ccccc34)c3ccccc23)CC1", "label.class": 2}
{"structure.smiles": "CN1CCN(/N=C/c2c(-c3ccccc3)n(S(=O)(=O)c3ccc(F)cc3)c3ccccc23)CC1", "label.class": 1}
{"structure.smiles": "COc1cc(C)c(Cl)cc1S(=O)(=O)n1c(C)c(/C=N/N2CCN(C)CC2)c2ccccc21", "label.class": 1}
{"structure.smiles": "CN1CCN(/N=C/c2c(-c3ccccc3)n(S(=O)(=O)c3cn(C)cn3)c3ccccc23)CC1", "label.class": 1}
{"structure.smiles": "COc1cc(C)c(Cl)cc1S(=O)(=O)n1c(-c2ccccc2)c(/C=N/N2CCN(C)CC2)c2ccccc21", "label.class": 2}
{"structure.smiles": "CN1CCN(/N=C/c2c(-c3ccccc3)n(S(=O)(=O)c3cccc4c(N(C)C)cccc34)c3ccccc23)CC1", "label.class": 0}

###

# target.under.test: 5-hydroxytryptamine receptor 4 (Homo sapiens)
# test.protocol: Antagonist activity at human recombinant 5HT4 receptor expressed in HEK293 cells assessed as inhibition of 5HT-induced cAMP accumulation at 10 uM pretreated for 10 mins before 5HT addition measured after 1 hr relative to control
# Assay type: functional, cell-based
Measured inhibition values are reported for all entries that follow.

{"structure.smiles": "Cc1c(/C=N/N2CCN(C)CC2)c2ccccc2n1S(=O)(=O)c1ccc(F)cc1", "unit.annotation": "%", "inhibition": 83}
{"structure.smiles": "CN1CCN(/N=C/c2c(-c3ccccc3)n(S(=O)(=O)c3cn(C)cn3)c3ccccc23)CC1", "unit.annotation": "%", "inhibition": 31.1}
{"structure.smiles": "COc1cc(C)c(Cl)cc1S(=O)(=O)n1c(C)c(/C=N/N2CCN(C)CC2)c2ccccc21", "unit.annotation": "%", "inhibition": 17.9}
{"structure.smiles": "CN1CCN(/N=C/c2c(-c3ccccc3)n(S(=O)(=O)c3ccccc3)c3ccccc23)CC1", "unit.annotation": "%", "inhibition": 79.9}
{"structure.smiles": "Cc1c(/C=N/N2CCN(C)CC2)c2ccccc2n1S(=O)(=O)c1ccc2ccccc2c1", "unit.annotation": "%", "inhibition": 92.2}
{"structure.smiles": "CN1CCN(/N=C/c2c(-c3ccccc3)n(S(=O)(=O)c3cccc4ccccc34)c3ccccc23)CC1", "unit.annotation": "%", "inhibition": 9.4}
{"structure.smiles": "CN1CCN(/N=C/c2c(-c3ccccc3)n(S(=O)(=O)c3ccc(F)cc3)c3ccccc23)CC1", "unit.annotation": "%", "inhibition": 37.3}
{"structure.smiles": "CN1CCN(/N=C/c2c(-c3ccccc3)n(S(=O)(=O)c3cccc4c(N(C)C)cccc34)c3ccccc23)CC1", "unit.annotation": "%", "inhibition": 65}
{"structure.smiles": "COc1ccc(NS(=O)(=O)c2ccc(I)cc2)cc1N1CCN(C)CC1", "unit.annotation": "%", "inhibition": 5.8}
{"structure.smiles": "COc1cc(C)c(Cl)cc1S(=O)(=O)n1c(-c2ccccc2)c(/C=N/N2CCN(C)CC2)c2ccccc21", "unit.annotation": "%", "inhibition": 13}

###

Measured inhibition values are reported for all entries that follow.
# target.under.test: 5-hydroxytryptamine receptor 6 (Homo sapiens)
# test.protocol: Antagonist activity at human recombinant 5HT6 receptor expressed in HEK293 cells assessed as inhibition of 5HT-induced cAMP accumulation at 10 uM pretreated for 10 mins before 5HT addition measured after 1 hr relative to control
# Format: functional, cell-based
measurement.type: inhibition (%)

{"structure.smiles": "Cc1c(/C=N/N2CCN(C)CC2)c2ccccc2n1S(=O)(=O)c1ccc(Cl)c2nonc12", "target.under.test": "5-hydroxytryptamine receptor 6 (Homo sapiens)", "reported.result": 27.2}
{"structure.smiles": "Cc1c(/C=N/N2CCN(C)CC2)c2ccccc2n1S(=O)(=O)c1cccc2c(N(C)C)cccc12", "target.under.test": "5-hydroxytryptamine receptor 6 (Homo sapiens)", "reported.result": 9.5}
{"structure.smiles": "COc1cc(C)c(Cl)cc1S(=O)(=O)n1c(-c2ccccc2)c(/C=N/N2CCN(C)CC2)c2ccccc21", "target.under.test": "5-hydroxytryptamine receptor 6 (Homo sapiens)", "reported.result": 55.3}
{"structure.smiles": "Cc1c(/C=N/N2CCN(C)CC2)c2ccccc2n1S(=O)(=O)c1ccc2ccccc2c1", "target.under.test": "5-hydroxytryptamine receptor 6 (Homo sapiens)", "reported.result": 78.9}
{"structure.smiles": "Cc1ccc(S(=O)(=O)n2c(-c3ccccc3)c(/C=N/N3CCN(C)CC3)c3ccccc32)cc1", "target.under.test": "5-hydroxytryptamine receptor 6 (Homo sapiens)", "reported.result": 33.2}
{"structure.smiles": "COc1ccc(S(=O)(=O)n2c(-c3ccccc3)c(/C=N/N3CCN(C)CC3)c3ccccc32)cc1", "target.under.test": "5-hydroxytryptamine receptor 6 (Homo sapiens)", "reported.result": 31.2}
{"structure.smiles": "CN1CCN(/N=C/c2c(-c3ccccc3)n(S(=O)(=O)c3ccc(Cl)cc3)c3ccccc23)CC1", "target.under.test": "5-hydroxytryptamine receptor 6 (Homo sapiens)", "reported.result": 30.5}
{"structure.smiles": "CN1CCN(/N=C/c2c(-c3ccccc3)n(S(=O)(=O)c3ccc(OC(F)(F)F)cc3)c3ccccc23)CC1", "target.under.test": "5-hydroxytryptamine receptor 6 (Homo sapiens)", "reported.result": 38.7}
{"structure.smiles": "CC(C)c1ccc(S(=O)(=O)n2c(-c3ccccc3)c(/C=N/N3CCN(C)CC3)c3ccccc32)cc1", "target.under.test": "5-hydroxytryptamine receptor 6 (Homo sapiens)", "reported.result": 35.4}
{"structure.smiles": "Cc1c(/C=N/N2CCN(C)CC2)c2ccccc2n1S(=O)(=O)c1ccc(/N=N/c2ccc(N(C)C)cc2)cc1", "target.under.test": "5-hydroxytryptamine receptor 6 (Homo sapiens)", "reported.result": 16.1}
{"structure.smiles": "CCc1ccc2ccccc2c1S(=O)(=O)n1c(C)c(/C=N/N2CCN(C)CC2)c2ccccc21", "target.under.test": "5-hydroxytryptamine receptor 6 (Homo sapiens)", "reported.result": 12.2}
{"structure.smiles": "Cc1c(/C=N/N2CCN(C)CC2)c2ccccc2n1S(=O)(=O)c1ccc(F)cc1", "target.under.test": "5-hydroxytryptamine receptor 6 (Homo sapiens)", "reported.result": 71.7}
{"structure.smiles": "Cc1c(/C=N/N2CCN(C)CC2)c2ccccc2n1S(=O)(=O)c1ccc(-c2ccc(Cl)cc2)cc1", "target.under.test": "5-hydroxytryptamine receptor 6 (Homo sapiens)", "reported.result": 0.1}
{"structure.smiles": "CN1CCN(/N=C/c2c(-c3ccccc3)n(S(=O)(=O)c3ccc4ccccc4c3)c3ccccc23)CC1", "target.under.test": "5-hydroxytryptamine receptor 6 (Homo sapiens)", "reported.result": 39.6}

The reported numbers originate from ChEMBL document CHEMBL2413033.
